Tested on: Saccharomyces cerevisiae
assay-info: fraction of cells in G1 phase (DNA content, flow cytometry); higher = more cells with unreplicated DNA (G1 delay)
measurement-conditions: temperature: 30 C; YPD; JTY2953 pdr5 snq2 (sensitized); drug added to: cultures diluted from stationary phase; 6-7 h

- molecule: "C=CC[N+]1([C@H]2C[C@H]3[C@@H]4CC[C@H]5C[C@H](O)[C@@H](N6CCOCC6)C[C@]5(C)[C@H]4CC[C@]3(C)[C@H]2OC(C)=O)CCCC1 [Rocuronium bromide] (37.7508 µM)"
  fraction of cells in G1 phase: 0.479
- molecule: "Nc1nc(Cl)nc2c1ncn2[C@@H]1O[C@H](CO)[C@@H](O)[C@@H]1F [Clofarabine] (65.8583 µM)"
  fraction of cells in G1 phase: 0.465
- molecule: "CC(=O)[C@]1(O)Cc2c(O)c3c(c(O)c2[C@@H](O[C@H]2C[C@H](N)[C@H](O)[C@H](C)O2)C1)C(=O)c1ccccc1C3=O [Idarubicin] (40.2005 µM)"
  fraction of cells in G1 phase: 0.291
- molecule: "C[C@]12C=CC(=O)C=C1CC[C@@H]1[C@@H]2C(=O)C[C@@]2(C)[C@H]1CC[C@]2(O)C(=O)CO [Prednisone] (55.7976 µM)"
  fraction of cells in G1 phase: 0.496
- molecule: "NCCCC[C@H](N[C@@H](CCc1ccccc1)C(=O)O)C(=O)N1CCC[C@H]1C(=O)O [Lisinopril] (49.322 µM)"
  fraction of cells in G1 phase: 0.502
- molecule: "COC(=O)c1ccc(=O)c2nc3c(=CO)c(O)cc(=O)c3[nH]c12 [Lomofungin] (63.6422 µM)"
  fraction of cells in G1 phase: 0.495

---

Tested on: Saccharomyces cerevisiae
assay-info: fraction of cells in G1 phase (DNA content, flow cytometry); higher = more cells with unreplicated DNA (G1 delay)
measurement-conditions: temperature: 30 C; YPD; JTY2953 pdr5 snq2 (sensitized); drug added to: cultures diluted from stationary phase; 6-7 h
Structures can show the parent of a compound that is named as a salt.
Criterion: fraction of cells in G1 phase meeting or surpassing 0.5. Met: true. Not met: false.

- compound: "CC(C)C[C@H](NC(=O)[C@H](Cc1ccccc1)NC(=O)c1cnccn1)B(O)O [Bortezomib] (52.0499 µM)"
  answer-label: "false"
- compound: "O=c1[nH]c2ccccc2n1CCCN1CCN(C(c2ccccc2)c2ccccc2)CC1 [Oxatomide] (46.886 µM)"
  answer-label: "true"
- compound: "CCCC(CCC)C(=O)O [Valproic acid] (138.681 µM)"
  answer-label: "true"
- compound: "Clc1ccc(CO/N=C(\\Cn2ccnc2)c2ccc(Cl)cc2Cl)c(Cl)c1 [Oxiconazole nitrate] (46.6053 µM)"
  answer-label: "true"
- compound: "O=C(O)/C=C/c1ccc(Cn2ccnc2)cc1 [Ozagrel] (87.6221 µM)"
  answer-label: "false"
- compound: "CC(C)(Oc1ccc(CCNC(=O)c2ccc(Cl)cc2)cc1)C(=O)O [Bezafibrate] (55.2748 µM)"
  answer-label: "true"
- compound: "CO[C@@]12[C@H](COC(N)=O)C3=C(C(=O)C(C)=C(N)C3=O)N1C[C@@H]1N[C@@H]12 [Mitomycin c] (59.8203 µM)"
  answer-label: "false"
- compound: "CC1(C)[C@H](C(=O)O)N2C(=O)C[C@H]2S1(=O)=O [Sulbactam] (85.7469 µM)"
  answer-label: "false"
- compound: "C[C@H]1COc2c(C3(N)CC3)c(F)cc3c(=O)c(C(=O)O)cn1c23 [Pazufloxacin] (62.8324 µM)"
  answer-label: "false"
- compound: "CCCCCN(C)CCC(O)(P(=O)(O)O)P(=O)(O)O [Ibandronate] (62.65 µM)"
  answer-label: "false"
- compound: "CC[N+](CC)(CC)CCOc1cccc(OCC[N+](CC)(CC)CC)c1OCC[N+](CC)(CC)CC [Gallamine triethiodide] (39.1519 µM)"
  answer-label: "true"
- compound: "C[C@H]1c2cccc(O)c2C(O)=C2C(=O)[C@]3(O)C(O)=C(C(N)=O)C(=O)[C@@H](N(C)C)[C@@H]3[C@@H](O)[C@@H]21 [Doxycycline HCl] (44.9999 µM)"
  answer-label: "true"
- compound: "Cc1nc2n(c(=O)c1CCN1CCC(c3noc4cc(F)ccc34)CC1)CCCC2 [Risperidone] (48.7216 µM)"
  answer-label: "false"
